Origin of the recorded values: ChEMBL document CHEMBL5214978

- System: SF-295
- protocol.details: Anticancer activity against human SF-295 cells assessed as cell growth inhibition measured after 48 hrs by SRB assay
- Assay type: functional
test.readout: GI50 (nM)
Could you give me the number in nM? Just the number is fine.

The following compounds have reported results that may help.
structure.string: COC(=O)C[C@@H]1NC(=O)c2cc(Oc3cccc(N(C)C)c3)c(NC(=O)c3cc(OC)c(OC)c(OC)c3)cc2NC1=O
test.readout: GI50
numeric.result: 3090

structure.string: CCN(CC)C(=O)C[C@H]1C(=O)Nc2cc(NC(=O)c3cc(OC)c(OC)c(OC)c3)c(Oc3cc(C)cc(C)c3)cc2C(=O)N1CC
test.readout: GI50
numeric.result: 118

Next, consider the following compound.
### Prompt I'd like to know its GI50. The compound in question is CCN(CC)C(=O)C[C@H]1C(=O)Nc2cc(NC(=O)c3cc(OC)c(OC)c(OC)c3Cl)c(Oc3cc(C)c(F)c(C)c3)cc2C(=O)N1C
### Response 19

----------
- System: HCT-116
- protocol.details: Anticancer activity against human HCT-116 cells assessed as cell growth inhibition measured after 48 hrs by SRB assay
- Format: functional
Overview of reported GI50 across a group of molecules:
Could you give me the number in µM? Just the number is fine.

The following molecules have reported results that may help.
structure.string: COC(=O)C[C@@H]1NC(=O)c2cc(Oc3cc(C)cc(C)c3)c(NC(=O)c3cc(OC)c(OC)c(OC)c3)cc2NC1=O
tested.target: HCT-116
numeric.result: 0.03

structure.string: CCN(CC)C(=O)C[C@H]1C(=O)Nc2cc(NC(=O)c3cc(OC)c(OC)c(OC)c3)c(Oc3cc(C)cc(C)c3)cc2C(=O)N1CC
tested.target: HCT-116
numeric.result: 0.145

structure.string: COc1cc(C(=O)Nc2cc3c(cc2Oc2cc(C)cc(C)c2)C(=O)N[C@@H](CC(N)=O)C(=O)N3)cc(OC)c1OC
tested.target: HCT-116
numeric.result: 0.79

### Prompt I'd like to know its GI50. The molecule in question is CCN(CC)C(=O)C[C@@H]1NC(=O)c2cc(Oc3cc(C)cc(C)c3)c(NC(=O)c3cc(OC)c(OC)c(OC)c3)cc2NC1=O
### Response 0.02

### Prompt I'd like to know its GI50. The molecule in question is CCN(CC)C(=O)C[C@H]1C(=O)Nc2cc(NC(=O)c3cc(OC)c(OC)c(OC)c3Cl)c(Oc3cc(C)c(F)c(C)c3)cc2C(=O)N1C
### Response 0.022

----------
- Tested on: A549
- protocol.details: Anticancer activity against human A549 cells assessed as cell growth inhibition measured after 48 hrs by SRB assay
- Type: functional
test.readout: GI50

The following molecules have reported results that may help.
structure.string: COC(=O)C[C@@H]1NC(=O)c2cc(Oc3cc(C)cc(C)c3)c(NC(=O)c3ccco3)cc2NC1=O
tested.target: A549
GI50: > 50 µM
--
structure.string: CCN(CC)C(=O)C[C@@H]1NC(=O)c2cc(Oc3cc(C)cc(C)c3)c(NC(=O)c3cc(OC)c(OC)c(OC)c3Br)cc2NC1=O
tested.target: A549
GI50: < 0.005 µM

Next, consider the following molecule.
### Prompt I'd like to know its GI50. The molecule in question is COC(=O)C[C@@H]1NC(=O)c2cc(Oc3cc(C)cc(C)c3)c(NCc3cc(OC)c(OC)c(OC)c3)cc2NC1=O
### Response > 50 µM
